# System: HSSY-II complex spheroid growth, percent test/control
# PROTOCOL SUMMARY: Anticancer human tumor HSSY-II cell line growth inhibition [Asc];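 further: spheroids exposed to drug for 7 days before reading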
# PARTICULARS: compound alone; run of 11/15/2022
pIC50: −log10 of the molar value.
PROPERTY: pIC50

Notebook: CNC(C)C(=O)NC1CN(S(=O)(=O)c2cccc(S(=O)(=O)N3CCC4CCC(C(=O)NC(c5ccccc5)c5ccccc5)N4C(=O)C(NC(=O)C(C)NC)C3)c2)CCC2CCC(C(=O)NC(c3ccccc3)c3ccccc3)N2C1=O (stereo unspecified) , pIC50 read as < 6.00

====

# Tested on: HSSY-II complex spheroid growth, percent test/control
# PROTOCOL SUMMARY: Anticancer human tumor HSSY-II cell line growth inhibition [Asc];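 further: spheroids exposed to drug for 7 days before reading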
# PARTICULARS: second compound 1 µM; first compound 0.1 µM; stronger effect = lower value
PROPERTY: viability, T/C (%)
Hi! Could you send only the number? It should be in %, unit omitted.

>  <COMPOUND>
Cn1ncnc1[C@H]1c2n[nH]c(=O)c3cc(F)cc(c23)N[C@@H]1c1ccc(F)cc1 + Cc1c(S(C)(=O)=O)c(-c2cc(F)cc(N3CCN(c4ccc(NS(=O)(=O)c5ccc(NC(CCN6CCC(C(=O)OCCCP(=O)(O)O)CC6)CSc6ccccc6)c(S(=O)(=O)C(F)(F)F)c5)cc4)CC3)c2)c(-c2ccc(Cl)cc2)n1C(C)C

>  <viability, T/C [%]>
13

$$$$

Could you now look at the following compound, please?
Notebook: Cn1ncnc1[C@H]1c2n[nH]c(=O)c3cc(F)cc(c23)N[C@@H]1c1ccc(F)cc1 + CNC(C)C(=O)NC1CN(S(=O)(=O)c2cccc(S(=O)(=O)N3CCC4CCC(C(=O)NC(c5ccccc5)c5ccccc5)N4C(=O)C(NC(=O)C(C)NC)C3)c2)CCC2CCC(C(=O)NC(c3ccccc3)c3ccccc3)N2C1=O , viability, T/C read as 48.9
